biological target: UniProt:P32245; experiment: Agonist activity at human MC4 receptor assessed as receptor activation; assay type: functional
Answer each item with its documented Activity.
Kindly answer with a numeric value in %, unit omitted.

Prompt line: Which Activity is reported for this molecule? Cc1nc(C(C)(C)C2CC3(CCN(C(=O)[C@@H]4CN(C(C)(C)C)C[C@H]4c4ccc(F)cc4F)CC3)c3cc(Cl)c(C)cc32)no1 (some centres undefined)
Response line: 71

Prompt line: Also, Cc1nnc(C(C)(C)[C@H]2CC3(CCN(C(=O)[C@@H]4CN(C(C)(C)C)C[C@H]4c4ccc(F)cc4F)CC3)c3cc(Cl)c(C)cc32)o1 please.
Response line: 97

Prompt line: Now consider Cc1cc2c(cc1Cl)C1(CCN(C(=O)[C@@H]3CC(N(C)C4CCOCC4)C[C@H]3c3ccc(F)cc3F)CC1)C[C@@H]2C(C)(C)c1ncnn1C (some centres undefined) and answer again.
Response line: 99

Prompt line: Same again, this time with Cc1cc2c(cc1Cl)C1(CCN(C(=O)[C@@H]3CN(C(C)(C)C)C[C@H]3c3ccc(F)cc3F)CC1)CC2C(C)(C)c1nnco1 (stereo in doubt; 5d1)
Response line: 117

----------
tested on: Mus musculus; assay: Reduction in food intake in DIO mouse obesity model at 6 mg/kg, po after 4 hrs; assay type: functional
For each entry below, report its inhibition in vivo at 6 mg/kg value.
State just the number; it will be interpreted in %.

Prompt line: Short answer please: inhibition in vivo at 6 mg/kg, Mus musculus, entry Cc1cc2c(cc1Cl)C1(CCN(C(=O)[C@@H]3CC(N(C)C4CCOCC4)C[C@H]3c3ccc(F)cc3F)CC1)C[C@@H]2C(C)(C)c1ncnn1C (some centres undefined)
Response line: 56

Prompt line: Param item: Cc1cc2c(cc1Cl)C1(CCN(C(=O)[C@@H]3CN(C4CCOCC4)C[C@H]3c3ccc(F)cc3F)CC1)C[C@@H]2C(C)(C)c1ncnn1C
Response line: 37

Prompt line: How about this compound: Cc1cc2c(cc1Cl)C1(CCN(C(=O)[C@@H]3CCN(C(C)(C)C)C[C@H]3c3ccc(F)cc3F)CC1)C[C@@H]2C(C)(C)c1ncnn1C
Response line: 47

Prompt line: Please do the same for Cc1cc2c(cc1Cl)C1(CCN(C(=O)[C@@H]3CN(C(C)(C)C)C[C@H]3c3ccc(F)cc3F)CC1)C[C@@H]2C(C)(C)c1ncnn1C as well.
Response line: 51

----------
So I've got a bunch of compounds here, and I need their Activity values.
species: Homo sapiens; test: Agonist activity at human MC1b receptor assessed as receptor activation; format: functional; design: concentration or dose not given beside the values
Provide the reading as a plain figure in %.

Prompt line: Name the reported Activity value associated with the compound Cc1nnc(C(C)(C)[C@H]2CC3(CCN(C(=O)[C@@H]4CN(C(C)(C)C)C[C@H]4c4ccc(F)cc4F)CC3)c3cc(Cl)c(C)cc32)o1
Response line: 88

Prompt line: // next record Cc1cc2c(cc1Cl)C1(CCN(C(=O)[C@@H]3CN(C(C)(C)C)C[C@H]3c3ccc(F)cc3F)CC1)CC2C(C)(C)c1nnco1 (stereo in doubt; 5d2)
Response line: 57

Prompt line: What about this compound? Cc1cc2c(cc1Cl)C1(CCN(C(=O)[C@@H]3CN(C4CCOCC4)C[C@H]3c3ccc(F)cc3F)CC1)C[C@@H]2C(C)(C)c1ncnn1C
Response line: 54

Prompt line: Note, next up: Cc1cnc(C(C)(C)[C@H]2CC3(CCN(C(=O)[C@@H]4CN(C(C)(C)C)C[C@H]4c4ccc(F)cc4F)CC3)c3cc(Cl)c(C)cc32)o1
Response line: 57

Prompt line: // query: Cc1nc(C(C)(C)C2CC3(CCN(C(=O)[C@@H]4CN(C(C)(C)C)C[C@H]4c4ccc(F)cc4F)CC3)c3cc(Cl)c(C)cc32)no1 (stereo partly specified)
Response line: 46

Prompt line: Follow-up item: Cc1cc2c(cc1Cl)C1(CCN(C(=O)[C@@H]3CN(C(C)(C)C)C[C@H]3c3ccc(F)cc3F)CC1)CC2C(C)(C)c1cnn[nH]1 (stereo partly specified)
Response line: 31

----------
target: Melanocortin receptor 4 (Homo sapiens, UniProt P32245)
Sequence (P32245 whole entry): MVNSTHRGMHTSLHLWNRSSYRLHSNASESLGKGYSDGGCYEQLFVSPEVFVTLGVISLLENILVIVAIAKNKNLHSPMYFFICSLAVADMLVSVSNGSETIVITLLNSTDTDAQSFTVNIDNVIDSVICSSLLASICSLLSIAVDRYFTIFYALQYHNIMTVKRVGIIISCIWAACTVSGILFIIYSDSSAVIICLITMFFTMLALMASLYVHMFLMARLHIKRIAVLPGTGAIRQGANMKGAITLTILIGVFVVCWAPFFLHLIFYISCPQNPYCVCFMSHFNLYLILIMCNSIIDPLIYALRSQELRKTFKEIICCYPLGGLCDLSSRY
pIC50: −log10 of the molar value.
Class y: pIC50 at least 9. Class n: pIC50 below 9.

Prompt line: Reported pIC50 reaches at least 9 for Cc1cnc(C(C)(C)[C@H]2CC3(CCN(C(=O)[C@@H]4CN(C(C)(C)C)C[C@H]4c4ccc(F)cc4F)CC3)c3cc(Cl)c(C)cc32)o1 ?
Response line: n

Prompt line: Try this compound too: Cc1cc2c(cc1Cl)C1(CCN(C(=O)[C@@H]3CN(C(C)(C)C)C[C@H]3c3ccc(F)cc3F)CC1)C[C@@H]2C(C)(C)c1ncnn1C
Response line: y

Prompt line: Next compound up: Cc1nc(C(C)(C)C2CC3(CCN(C(=O)[C@@H]4CN(C(C)(C)C)C[C@H]4c4ccc(F)cc4F)CC3)c3cc(Cl)c(C)cc32)no1 (stereo not given in full)
Response line: n

Prompt line: Another compound: Cc1cc2c(cc1Cl)C1(CCN(C(=O)[C@@H]3CN(C(C)(C)C)C[C@H]3c3ccc(F)cc3F)CC1)CC2C(C)(C)c1cnn[nH]1 (stereo not given in full)
Response line: n

----------
Provide the recorded inhibition in vivo at 20 mg/kg for the entries that follow.
test system: Mus musculus; assay: Reduction in food intake in DIO mouse obesity model at 20 mg/kg, po after 18 hrs; type: functional
Remember to quote the unit after the number.

Prompt line: What value of measured inhibition in vivo at 20 mg/kg is listed for Cc1cc2c(cc1Cl)C1(CCN(C(=O)[C@@H]3CN(C4CCOCC4)C[C@H]3c3ccc(F)cc3F)CC1)C[C@@H]2C(C)(C)c1ncnn1C ?
Response line: 11%

Prompt line: And what about the compound Cc1cc2c(cc1Cl)C1(CCN(C(=O)[C@@H]3CC(N(C)C4CCOCC4)C[C@H]3c3ccc(F)cc3F)CC1)C[C@@H]2C(C)(C)c1ncnn1C (some centres undefined) ?
Response line: 17%

Prompt line: Subsequent entry: Cc1cc2c(cc1Cl)C1(CCN(C(=O)[C@@H]3CN(C(C)(C)C)C[C@H]3c3ccc(F)cc3F)CC1)C[C@@H]2C(C)(C)c1ncnn1C
Response line: 18%

Prompt line: Queued: Cc1cc2c(cc1Cl)C1(CCN(C(=O)[C@@H]3CCN(C(C)(C)C)C[C@H]3c3ccc(F)cc3F)CC1)C[C@@H]2C(C)(C)c1ncnn1C
Response line: 15%

----------
target: Melanocortin receptor 4 (Homo sapiens); assay: Agonist activity at human MC4 receptor assessed as receptor activation; type: functional
Field: Activity. Provide a value for each of the compounds that follow.
Please reply with the bare figure in % and do not write the unit itself.

Prompt line: Any idea what Activity was measured for Cc1cc2c(cc1Cl)C1(CCN(C(=O)[C@@H]3CN(C4CCOCC4)C[C@H]3c3ccc(F)cc3F)CC1)C[C@@H]2C(C)(C)c1ncnn1C ?
Response line: 105

Prompt line: Next record, please: Cc1cc2c(cc1Cl)C1(CCN(C(=O)[C@@H]3CN(C(C)(C)C)C[C@H]3c3ccc(F)cc3F)CC1)CC2C(C)(C)c1nnco1 (stereo in doubt; 5d2)
Response line: 92

Prompt line: Moving on to Cc1cnc(C(C)(C)[C@H]2CC3(CCN(C(=O)[C@@H]4CN(C(C)(C)C)C[C@H]4c4ccc(F)cc4F)CC3)c3cc(Cl)c(C)cc32)o1
Response line: 99

Prompt line: Would you mind doing Cc1cc2c(cc1Cl)C1(CCN(C(=O)[C@@H]3CN(C(C)(C)C)C[C@H]3c3ccc(F)cc3F)CC1)CC2C(C)(C)c1cnn[nH]1 (stereo partly specified) as well?
Response line: 82

Prompt line: Again, but for Cc1cc2c(cc1Cl)C1(CCN(C(=O)[C@@H]3CN(C(C)(C)C)C[C@H]3c3ccc(F)cc3F)CC1)C[C@@H]2C(C)(C)c1ncnn1C
Response line: 106

Prompt line: Likewise for Cc1cc2c(cc1Cl)C1(CCN(C(=O)[C@@H]3CCN(C(C)(C)C)C[C@H]3c3ccc(F)cc3F)CC1)C[C@@H]2C(C)(C)c1ncnn1C ?
Response line: 96

----------
test: Clearance in Sprague-Dawley rat at 1 mg/kg, iv and 4 mg/kg, po; assay type: ADME, organism-based; conditions: in vivo
Could you please report measured clearance for the items listed next?
Only the number, expressed in mL/min/kg, is required.

Prompt line: Which clearance reading was recorded for the molecule Cc1cc2c(cc1Cl)C1(CCN(C(=O)[C@@H]3CC(N(C)C4CCOCC4)C[C@H]3c3ccc(F)cc3F)CC1)C[C@@H]2C(C)(C)c1ncnn1C (some centres undefined) ?
Response line: 24

Prompt line: Repeat with Cc1cc2c(cc1Cl)C1(CCN(C(=O)[C@@H]3CN(C4CCOCC4)C[C@H]3c3ccc(F)cc3F)CC1)C[C@@H]2C(C)(C)c1ncnn1C
Response line: 37

Prompt line: Same again, this time with Cc1cc2c(cc1Cl)C1(CCN(C(=O)[C@@H]3CCN(C(C)(C)C)C[C@H]3c3ccc(F)cc3F)CC1)C[C@@H]2C(C)(C)c1ncnn1C
Response line: 22

Prompt line: Next molecule: Cc1cc2c(cc1Cl)C1(CCN(C(=O)[C@@H]3CN(C(C)(C)C)C[C@H]3c3ccc(F)cc3F)CC1)C[C@@H]2C(C)(C)c1ncnn1C
Response line: 6.7
